tested.target: HLA-A*31:01
procedure.summary: IEDB peptide-MHC binding, purified MHC/direct/fluorescence; filed as Kd, often an IC50 or EC50 that approximates it; bounds were set here for any values at or beyond the usual limits of such assays
experimental.conditions: source organism: Cowpox virus
pKd: −log10 of the molar value.
measured.metric: pKd

Query: Fill blank: measured pKd of the sequence YPPPRYITV is ____.
Response: ≤ 4.70

----------
tested.target: HLA-A*03:01
procedure.summary: IEDB peptide-MHC binding, purified MHC/competitive/fluorescence; filed as Kd, often an IC50 or EC50 that approximates it; bounds were set here for any values at or beyond the usual limits of such assays
experimental.conditions: source organism: Vibrio parahaemolyticus RIMD 2210633
measured.metric: Kd

Query: Fill blank: measured Kd of the sequence HVIYFTAFT is ____.
Response: ≥ 20 µM

----------
tested.target: HLA-A*02:17
procedure.summary: IEDB peptide-MHC binding, purified MHC/competitive/radioactivity; filed as Kd, often an IC50 or EC50 that approximates it; bounds were set here for any values at or beyond the usual limits of such assays
experimental.conditions: source organism: Dengue virus 3 China/80-2/1980
measured.metric: log10 Kd (log10 of the value in µM)
In plain terms, each number is the log10 of measured Kd in µM.

Look over these answered cases.
| monomer.sequence | reading |
| --- | --- |
| MLWMADVPL | -2.57 |
| FMMVLLIPEP | 0.76 |
| LMMMLPATLA | 0.46 |
| WMTTEDMLTV | 0.35 |
| TLLLLGLMIL | 0.38 |

Query: Fill blank: measured log10 Kd of the sequence VLLKTALLIV is ____.
Response: 0.40

----------
tested.target: HLA-B*39:01
procedure.summary: IEDB peptide-MHC binding, purified MHC/competitive/fluorescence; filed as Kd, often an IC50 or EC50 that approximates it; bounds were set here for any values at or beyond the usual limits of such assays
experimental.conditions: source organism: Vibrio parahaemolyticus RIMD 2210633
pKd: −log10 of the molar value.
measured.metric: pKd

Query: Fill blank: measured pKd of the sequence HVIYFTAFT is ____.
Response: ≤ 4.70

----------
tested.target: HLA-B*08:01
procedure.summary: IEDB peptide-MHC binding, purified MHC/competitive/radioactivity; filed as Kd, often an IC50 or EC50 that approximates it; bounds were set here for any values at or beyond the usual limits of such assays
experimental.conditions: source organism: Dengue virus 3 Sri Lanka/1266/2000
measured.metric: Kd

Query: Fill blank: measured Kd of the sequence LMMILPAAL is ____.
Response: 0.0181 µM

----------
tested.target: HLA-B*57:01
procedure.summary: IEDB peptide-MHC binding, purified MHC/competitive/fluorescence; filed as Kd, often an IC50 or EC50 that approximates it; bounds were set here for any values at or beyond the usual limits of such assays
experimental.conditions: source organism: Vibrio parahaemolyticus RIMD 2210633
pKd: −log10 of the molar value.
measured.metric: pKd

Query: Fill blank: measured pKd of the sequence HVIYFTAFT is ____.
Response: ≤ 4.70

----------
tested.target: HLA-A*11:01
procedure.summary: IEDB peptide-MHC binding, purified MHC/competitive/radioactivity; filed as Kd, often an IC50 or EC50 that approximates it; bounds were set here for any values at or beyond the usual limits of such assays
experimental.conditions: source organism: Dengue virus 4 Philippines/H241/1956
List of pKd values.
pKd here: minus log base 10 of the concentration, concentration in moles per litre.

| monomer.sequence | tested.target | measured.metric | reading |
| --- | --- | --- | --- |
| KVASAGISYK | HLA-A*11:01 | pKd | 7.64 |
| MTLWYMWQVK | HLA-A*11:01 | pKd | 8.19 |

Query: Item: WSYYMATLK Test system: HLA-A*11:01 Read-out: pKd Value: ?
Response: 7.79
